Reported pKa by item:
experimentalProtocol: determination of pKa of the sulfonamide group by UV-VIS spectra at various pH
Format: physicochemical
conditionsUsed: calculated from spectra at various pH, 37 °C
// response body must contain only the number

# annotated cases, reported pKa shown
COC(=O)c1cc(S(N)(=O)=O)c(Br)cc1S(=O)(=O)c1ccccc1 [Compound 10a]
8.4
COC(=O)c1cc(S(N)(=O)=O)c(Cl)cc1S(=O)(=O)c1ccccc1 [Compound 9a]
8.2
COC(=O)c1cc(S(N)(=O)=O)c(Cl)cc1Cl [Compound 1, Methyl 2,4-dichloro-5-sulfamoyl-benzoate]
8.9

INPUT: Supply pKa value. Item: COC(=O)c1cc(S(N)(=O)=O)c(Cl)cc1S(=O)(=O)CCc1ccccc1 [Compound 9d]
OUTPUT: 8.4

INPUT: Supply pKa value. Item: COC(=O)c1cc(S(N)(=O)=O)c(Cl)cc1S(=O)(=O)C1CCCCC1 [Compound 9b]
OUTPUT: 8.2

INPUT: Supply pKa value. Item: COC(=O)c1cc(S(N)(=O)=O)c(Br)cc1Br [Compound 2, Methyl 2,4-dibromo-5-sulfamoyl-benzoate]
OUTPUT: 8.8
